# system tested: human JAK1 (Homo sapiens, UniProt P23458)
# Construct: catalytic domain, amino acids 866-1154; catalog number PV4774
# Sequence (P23458 866-1154): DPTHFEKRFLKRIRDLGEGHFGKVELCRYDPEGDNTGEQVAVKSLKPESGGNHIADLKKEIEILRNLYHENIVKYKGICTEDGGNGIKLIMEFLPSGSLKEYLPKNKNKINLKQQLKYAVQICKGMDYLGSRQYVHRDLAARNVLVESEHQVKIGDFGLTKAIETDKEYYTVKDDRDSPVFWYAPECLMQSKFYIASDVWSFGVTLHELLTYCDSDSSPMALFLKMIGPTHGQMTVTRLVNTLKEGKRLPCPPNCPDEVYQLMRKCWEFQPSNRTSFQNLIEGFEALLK
# assay remarks: JAK1 inhibition assay (polyGT substrate / Ulight-JAK1 peptide)
# condition info: recombinant human JAK1 catalytic domain; polyGT or Ulight-JAK1 peptide assay
pIC50: −log10 of the molar value.
Measured pIC50 values are reported for all entries that follow.

Below, 3 molecules whose answers are already recorded.
Q. # query: pIC50 of entry CCc1cc(C2=CCOCC2)ccc1N(C)c1cc2c(cn1)ncn2C
A. 7.00 to 11.00

Q. # query: pIC50 of entry CCc1cc(-c2cnn(CCN3CCCC3)c2)ccc1N(C)c1cc2c(cn1)ncn2C
A. 7.00 to 11.00

Q. # query: pIC50 of entry CCc1cc(C2=CCN(S(=O)(=O)C(C)C)CC2)ccc1N(C)c1cc2c(cn1)ncn2C
A. 7.00 to 11.00

Continuing:
Q. # query: pIC50 of entry CCc1cc(C(C#N)N2CC[C@@H](OC)C2)ccc1N(C)c1cc2c(cn1)ncn2C (some centres unmarked)
A. 7.00 to 11.00

Q. # query: pIC50 of entry COc1ccccc1N(C)c1cc2c(cn1)ncn2C
A. 6.30 to 7.00

###

# system tested: human JAK3 (Homo sapiens, UniProt P52333)
# Construct: catalytic domain (amino acids 781-1124; catalog number PV3855)
# Sequence (P52333 781-1124): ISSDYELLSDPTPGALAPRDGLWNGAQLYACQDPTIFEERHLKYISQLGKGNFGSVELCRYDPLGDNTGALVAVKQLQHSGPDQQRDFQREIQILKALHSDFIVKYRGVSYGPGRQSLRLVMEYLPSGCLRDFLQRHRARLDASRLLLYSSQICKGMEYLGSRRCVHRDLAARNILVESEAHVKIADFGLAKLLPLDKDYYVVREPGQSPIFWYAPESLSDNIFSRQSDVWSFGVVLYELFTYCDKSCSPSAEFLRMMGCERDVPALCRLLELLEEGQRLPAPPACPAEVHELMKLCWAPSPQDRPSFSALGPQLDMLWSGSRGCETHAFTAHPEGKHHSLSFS
# assay remarks: JAK3 inhibition assay
# condition info: recombinant human JAK3 catalytic domain; polyGT substrate
Measured IC50 values are reported for all entries that follow.

Q. # query: IC50 of entry CCc1ccc(C#N)cc1N(C)c1cc2c(cn1)ncn2C
A. > 1000 nM

Q. # query: IC50 of entry CCC(=O)N1CCC(c2ccc(N(C)c3cc4c(cn3)ncn4C)c(CC)c2)CC1
A. 101 to 500 nM

Q. # query: IC50 of entry CCc1cc(C(C#N)N2CCC(F)(F)C2)ccc1N(C)c1cc2c(cn1)ncn2C (centres unmarked)
A. 101 to 500 nM

Q. # query: IC50 of entry CCc1cc(CN2CCNC(=O)C2)ccc1N(C)c1cc2c(cn1)ncn2C
A. 501 to 1000 nM

Q. # query: IC50 of entry CCc1cc(-c2noc(CC#N)n2)ccc1N(C)c1cc2c(cn1)ncn2C
A. 501 to 1000 nM

Continuing:
Q. # query: IC50 of entry CC(C)S(=O)(=O)N1CC(c2ccc(N(C)c3cc4c(cn3)ncn4C)c(OC(F)F)c2)C1
A. 501 to 1000 nM

Q. # query: IC50 of entry CCc1cc(C(C#N)N2CC[C@@H](F)C2)ccc1N(C)c1cc2c(cn1)ncn2C (some centres unmarked)
A. 101 to 500 nM

Q. # query: IC50 of entry CCc1cc(-c2noc(C)n2)ccc1N(C)c1cc2c(cn1)ncn2C
A. > 1000 nM

###

# system tested: human JAK2 (Homo sapiens, UniProt O60674)
# Construct: catalytic domain (amino acids 808-1132; catalog number PV4210); GST; purchased Invitrogen PV4210
# Sequence (O60674 808-1132): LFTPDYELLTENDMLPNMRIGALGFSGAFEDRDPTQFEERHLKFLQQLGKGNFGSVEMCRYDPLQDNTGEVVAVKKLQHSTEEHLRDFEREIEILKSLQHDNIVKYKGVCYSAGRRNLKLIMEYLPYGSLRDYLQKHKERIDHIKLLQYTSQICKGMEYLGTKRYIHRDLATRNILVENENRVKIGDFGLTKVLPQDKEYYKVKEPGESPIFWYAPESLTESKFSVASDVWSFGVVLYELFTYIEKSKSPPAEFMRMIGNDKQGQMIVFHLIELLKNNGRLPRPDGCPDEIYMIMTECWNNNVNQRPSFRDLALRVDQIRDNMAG
# assay remarks: JAK2 inhibition assay (polyGT substrate / Ulight-JAK1 peptide)
# Type: biochemical
# condition info: recombinant human JAK2 catalytic domain; polyGT or Ulight-JAK1 peptide assay
parameter measured: IC50

Below, 5 molecules whose answers are already recorded.
Q. # query: IC50 of entry Cc1cc(C#N)ccc1N(C)c1cc2c(cn1)ncn2C
A. > 1000 nM

Q. # query: IC50 of entry CN(c1cc2c(cn1)ncn2C)c1ccccc1C(F)(F)F
A. > 1000 nM

Q. # query: IC50 of entry CCc1cc(C2(CCNS(=O)(=O)C(F)F)COC2)ccc1N(C)c1cc2c(cn1)ncn2C
A. 0.01 to 100 nM

Q. # query: IC50 of entry Cc1c(OCC#N)cccc1N(C)c1cc2c(cn1)ncn2C
A. 101 to 500 nM

Q. # query: IC50 of entry CCc1cc(N2CCCC(C#N)C2)ncc1N(C)c1cc2c(cn1)ncn2C (stereo not drawn)
A. 0.01 to 100 nM

Continuing:
Q. # query: IC50 of entry CCc1cc(C2(CC#N)COC2)ccc1N(C)c1cc2c(cn1)ncn2C
A. 0.01 to 100 nM

Q. # query: IC50 of entry CCc1cc(C(=O)OC)ccc1N(C)c1cc2c(cn1)ncn2C
A. 101 to 500 nM

Q. # query: IC50 of entry Cc1ccc(Oc2ccc(C#N)nc2)cc1N(C)c1cc2c(cn1)ncn2C
A. > 1000 nM

Q. # query: IC50 of entry CN(c1cc2c(cn1)ncn2C)c1cc(C2CC2)nn1C
A. > 1000 nM

// data source = patent US20130217664A1
